- System: AsPC-1 (Pancreatic Carcinoma);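 further: after 72 h of two-drug dosing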
- TEST: Bliss excess, mean over the matrix (fraction); higher = more synergy
So I've got a bunch of compounds here, and I need their Bliss excess values.
// no unit string in output, number only

Q: Please report the recorded Bliss excess for CN(C)CCCOc1ccc(-c2ccc3ncc4c(c3c2)n(C2CCOCC2)c(=O)n4C)cn1 [AZD0156] + O=C(c1cc(Cc2n[nH]c(=O)c3ccccc23)ccc1F)N1CCN(C(=O)C2CC2)CC1 [Olaparib] (first compound max 3 µM, partner max 3 µM) .
Result: 0.005

Q: Check Cc1cc2ncnn2cc1Nc1ncc2c(n1)n(C1CCOCC1)c(=O)n2C [AZD7648] + O=C(c1cc(Cc2n[nH]c(=O)c3ccccc23)ccc1F)N1CCN(C(=O)C2CC2)CC1 [Olaparib] (first compound max 10 µM, 7x7, partner max 10 µM) too.
Result: -0.0567

Q: Subsequent entry: C=CCn1c(=O)c2cnc(Nc3ccc(N4CCN(C)CC4)cc3)nc2n1-c1cccc(C(C)(C)O)n1 [AZD1775] + C1CN(CCC1(C(=O)N[C@@H](CCO)C2=CC=C(C=C2)Cl)N)C3=NC=NC4=C3C=CN4 [Capivasertib] (first compound max 3 µM, partner max 3 µM)
Result: -0.0654

Q: Queued: CN(C)CCCOc1ccc(-c2ccc3ncc4c(c3c2)n(C2CCOCC2)c(=O)n4C)cn1 [AZD0156] + C[C@@H]1COCCN1C2=NC(=NC(=C2)C3(CC3)[S@](=N)(=O)C)C4=C5C=CNC5=NC=C4 [AZD6738] (first compound max 1 µM, 7x7, partner max 10 µM)
Result: -0.0184

Q: Same question for COc1nnc2ccc(N3CCC(c4ccc(OCCN5CCN(C)C(=O)[C@H]5C)cc4)CC3)nn12 [AZD5153] + C=CCn1c(=O)c2cnc(Nc3ccc(N4CCN(C)CC4)cc3)nc2n1-c1cccc(C(C)(C)O)n1 [AZD1775] (first compound max 1 µM, partner max 1 µM) please.
Result: 0.0167

Q: Thanks! And CN(CCO)CC[C@H](CSc1ccccc1)Nc1ccc(S(=O)(=O)NC(=O)c2ccc(N3CCC([C@@H](O)c4ccccc4-c4ccc(Cl)cc4)CC3)cc2)cc1S(=O)(=O)C(F)(F)F [AZD4320] + C[C@@H]1COCCN1C2=NC(=NC(=C2)C3(CC3)[S@](=N)(=O)C)C4=C5C=CNC5=NC=C4 [AZD6738] (first compound max 1 µM, 7x7, partner max 10 µM) ?
Result: -0.109

Q: Proceed to CCN(CCO)CCCOc1ccc2c(Nc3cc(CC(=O)Nc4cccc(F)c4)[nH]n3)ncnc2c1 [AZD2811] + O=C(c1cc(Cc2n[nH]c(=O)c3ccccc23)ccc1F)N1CCN(C(=O)C2CC2)CC1 [Olaparib] (first compound max 1 µM, 7x7, partner max 10 µM)
Result: -0.0273
